# measured.on: T1, soluble form of human CD16A (sCD16A) (human, UniProt P08637 17-203)
# T1 construct: CD16A gene truncated just prior to the transmembrane region, expressed in HEK-293; The last seven residues come from vector pCDNA3.1; also called sFcRIIIa
# procedure.details: ELISA, sCD16A captured by mAb LNK-16
# Procedure: The plate was washed and dilutions of recombinant antibodies starting at 0.5 μg/ml in PBS-T-BSA were then added and incubated for 1 hr at room temp. […] After stopping color development using dilute sulfuric acid, the plate was read at 450 nm.
value.type: binding result

{"binder": "hu3G8VH-5/hu3G8VL-1 (antibody, V domains shown, Human Cγ1/Cκ constant regions; HEK-293; also called Hu3G8-5.1; h3G8 5.1) VH: QVTLRESGPALVKPTQTLTLTCTFSGFSLSTSGMGVGWIRQPPGKALEWLAHIWWDDDKRYNPALKSRLTISKDTSKNQVVLTMTNMDPVDTATYYCAQINPAWFAYWGQGTLVTVSS VL: DIVMTQSPDSLAVSLGERATINCKASQSVDFDGDSFMNWYQQKPGQPPKLLIYTTSNLESGVPDRFSGSGSGTDFTLTISSLQAEDVAVYYCQQSNEDPYTFGQGTKLEIK", "data.value": "binds"}
{"binder": "hu3G8VH-18/hu3G8VL-1 (antibody, V domains shown, Human Cγ1/Cκ constant regions; HEK-293) VH: QVTLRESGPALVKPTQTLTLTCTFSGFSLSTSGMGVGWIRQPPGKALEWLAHIWWDDDKRYNPALKSRLTISKDTSKNQVVLTMTNMDPVDTATYYCAHINPAWFAYWGQGTLVTVSS VL: DIVMTQSPDSLAVSLGERATINCKASQSVDFDGDSFMNWYQQKPGQPPKLLIYTTSNLESGVPDRFSGSGSGTDFTLTISSLQAEDVAVYYCQQSNEDPYTFGQGTKLEIK", "data.value": "binds"}
{"binder": "hu3G8VH-42/hu3G8VL-1 (antibody, V domains shown, Human Cγ1/Cκ constant regions; HEK-293) VH: QITLKESGPTLVKPTQTLTLTCTFSGFSLSTSGVGVGWIRQPPGKALEWLAHIWWDDDKRYSPSLKSRLTITKDTSKNQVVLTMTNMDPVDTATYYCARINPAWFAYWGQGTLVTVSS VL: DIVMTQSPDSLAVSLGERATINCKASQSVDFDGDSFMNWYQQKPGQPPKLLIYTTSNLESGVPDRFSGSGSGTDFTLTISSLQAEDVAVYYCQQSNEDPYTFGQGTKLEIK", "data.value": "binds"}
